Measured kon values are reported for all entries that follow.
- target_entity: T1, human DLL4 extracellular domain (human, UniProt Q9NR61 27-529)
- T1 construct: purified recombinant ECD; biotin-labelled or 6xHis-tagged depending on the assay; also called huDLL4 ECD; hu DLL4 ECD
- protocol_description: SPR (Biacore)
observable: kon (M⁻¹ s⁻¹)

{"columns": ["binder", "observable", "result_value"],
 "data": [
  ["1A11 rat anti-DLL4 monoclonal antibody (antibody, rat IgG1, V domains shown, rat IgG1/K hybridoma mAb; also called MC13-1A11.2E1; 1A11 (rat mAb)) VH: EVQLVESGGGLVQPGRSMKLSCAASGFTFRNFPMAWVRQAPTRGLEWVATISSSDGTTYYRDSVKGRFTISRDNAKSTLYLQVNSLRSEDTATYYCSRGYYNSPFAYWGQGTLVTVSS VL: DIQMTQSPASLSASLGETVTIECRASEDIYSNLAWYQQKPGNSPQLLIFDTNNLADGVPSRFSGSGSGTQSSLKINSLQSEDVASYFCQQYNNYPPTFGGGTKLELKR", "kon", 190000],
  ["14G1 rat anti-DLL4 monoclonal antibody (antibody, rat IgG2a, V domains shown, rat IgG2a/K hybridoma mAb; also called MC13-14G1.1B4) VH: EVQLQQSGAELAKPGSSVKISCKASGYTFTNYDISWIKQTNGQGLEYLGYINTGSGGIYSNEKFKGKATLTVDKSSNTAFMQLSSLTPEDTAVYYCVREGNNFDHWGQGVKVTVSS VL: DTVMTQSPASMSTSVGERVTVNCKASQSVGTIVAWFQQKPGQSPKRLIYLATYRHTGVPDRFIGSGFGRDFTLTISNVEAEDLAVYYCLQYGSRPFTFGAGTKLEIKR", "kon", 54000],
  ["37D10 rat anti-DLL4 monoclonal antibody (antibody, rat IgG2a, V domains shown, rat IgG2a/k hybridoma mAb; also called 40B10; 37D10 = 40B10) VH: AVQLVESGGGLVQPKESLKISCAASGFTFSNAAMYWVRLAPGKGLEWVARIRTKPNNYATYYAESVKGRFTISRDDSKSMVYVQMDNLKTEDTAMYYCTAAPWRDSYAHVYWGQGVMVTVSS VL: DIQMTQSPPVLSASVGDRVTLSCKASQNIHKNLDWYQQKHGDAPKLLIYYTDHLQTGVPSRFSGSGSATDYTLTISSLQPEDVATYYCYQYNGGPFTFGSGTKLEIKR", "kon", 140000]
]}
